Tested on: Swiss CD-1 female mice
Test: Nephrotoxicity study, histopathological scoring of kidney lesions
Assay type: in vivo
Conditions: Table 6; sum of mouse scores; 12 mg/Kg every 2 hours × 6, subcutaneous, total 72 mg/Kg
Text: Swiss CD-1 female mice weighing approximately 20-24 g (JANVIER Labs) were used, housed in an individually ventilated cage system under specific pathogen-free conditions, and water and food supplied ad libitum. […] Kidney lesions (tubule dilation, necrosis, tubule casts, cell vacuolization, cell desquamation, and cell swelling) were quantified by microscopical observation (see for instance, Roberts, ACS Infect. Dis., 2015, 1, 568). […]
Numbered stars: 1 amine (or outer) side, 2 acyl side, 3 side chain; on linkers, the order of the positions; unused ones are H or OH. Bridge positions count the residues as written; N and C are the ends. Square brackets hold non-standard residues; d marks the D form. Peptide text beside a SMILES is read from it. X1 = C[C@@H](O)[C@@H](CS[*:1])N[*:2]; dGly(nOct) = CCCCCCCC[C@@H](N)C(=O)O; Hica(2S) = CC(C)C[C@H](O)C(=O)O; Dab = NCC[C@H](N)C(=O)O
assay.metric: Tubular dilation, Partial AS
Reply: number alone, nothing else.

INSERT INTO measurements (compound, assay_metric, data_value) VALUES
  ('CCCCCCCC[C@@H](N)C(=O)N[C@H](C(=O)N[C@@H](CCN)C(=O)N[C@H]1CSSC[C@H]([C@@H](C)O)NC(=O)[C@H](CCN)NC(=O)[C@H](CCN)NC(=O)[C@H](CC(C)C)NC(=O)[C@@H](Cc2ccccc2)NC(=O)[C@H](CCN)NC1=O)[C@@H](C)O [Example 5] (H-[dGly(nOct)]T[Dab]C[Dab][dF]L[Dab][Dab]; linker 4-C via X1; N-terminus assumed)', 'Tubular dilation, Partial AS', 0);

Here is the next item to consider.
Prompt: What does the record list as Tubular dilation, Partial AS for CCCCCCCC[C@@H](N)C(=O)N[C@H](C(=O)N[C@@H](CCN)C(=O)N[C@H]1CSSC[C@H]([C@@H](C)O)NC(=O)[C@H](CCN)NC(=O)[C@H](CCN)NC(=O)[C@H](CC(C)C)OC(=O)[C@@H](Cc2ccccc2)NC(=O)[C@H](CCN)NC1=O)[C@@H](C)O [Example 10] (H-[dGly(nOct)]T[Dab]C[Dab][dF][Hica(2S)][Dab][Dab]; linker 4-C via X1) ?
Completion: 0

* * *

Mice found dead values for the substances below.
System: Swiss CD-1 female mice
Test: Nephrotoxicity study, histopathological scoring of kidney lesions
Type: in vivo
Details: Table 8; 12 mg/Kg every 2 hours × 6 sc, total 72 mg/Kg; 3 mice
Description: Swiss CD-1 female mice weighing approximately 20-24 g (JANVIER Labs) were used, housed in an individually ventilated cage system under specific pathogen-free conditions, and water and food supplied ad libitum. […] Kidney lesions (tubule dilation, necrosis, tubule casts, cell vacuolization, cell desquamation, and cell swelling) were quantified by microscopical observation (see for instance, Roberts, ACS Infect. Dis., 2015, 1, 568). […]
Note: unit dead is implicit; provide only the numeric part.

INSERT INTO measurements (substance, assay_metric, data_value) VALUES
  ('Heptanoyl-Dab-Thr-Dab-cyclo(S-S)[Cys-Dab-DAoc-Nle-Dab-Dab-DCys] [compound 3]', 'Mice found dead', 2);

Prompt: What does the record list as Mice found dead for Decanoyl-Dab-Thr-Dab-cyclo(S-S)[Cys-Dab-DPhe-Nle-Dab-Dab-DCys] [compound 2] ?
Completion: 2

* * *

antibacterial activity (MIC) values for the molecules below.
Tested on: E. coli ATCC 25922
Assay: microbe, parasite or virus in culture
Type: cell-based
Details: ATCC 25922
Numbered stars: 1 amine (or outer) side, 2 acyl side, 3 side chain; on linkers, the order of the positions; unused ones are H or OH. Bridge positions count the residues as written; N and C are the ends. Square brackets hold non-standard residues; d marks the D form. Peptide text beside a SMILES is read from it. X1 = C[C@@H](O)[C@@H](CS[*:1])N[*:2]; dGly(nOct) = CCCCCCCC[C@@H](N)C(=O)O; Hica(2S) = CC(C)C[C@H](O)C(=O)O; Dab = NCC[C@H](N)C(=O)O
Note: unit µg/mL is implicit; provide only the numeric part.

INSERT INTO results (molecule, output_unit, data_value) VALUES
  ('CCCCCCCC[C@@H](N)C(=O)N[C@H](C(=O)N[C@@H](CCN)C(=O)N[C@H]1CSSC[C@H]([C@@H](C)O)NC(=O)[C@H](CCN)NC(=O)[C@H](CCN)NC(=O)[C@H](CC(C)C)OC(=O)[C@@H](CC(C)C)NC(=O)[C@H](CCN)NC1=O)[C@@H](C)O [Example 8] (H-[dGly(nOct)]T[Dab]C[Dab][dL][Hica(2S)][Dab][Dab]; linker 4-C via X1)', 'µg/mL', 2);

Prompt: What does the record list as antibacterial activity (MIC) for CCCCCCCC[C@@H](N)C(=O)N[C@H](C(=O)N[C@@H](CCN)C(=O)N[C@H]1CSSC[C@H]([C@@H](C)O)NC(=O)[C@H](CCN)NC(=O)[C@H](CCN)NC(=O)[C@H](CC(C)C)OC(=O)[C@@H](Cc2ccccc2)NC(=O)[C@H](CCN)NC1=O)[C@@H](C)O [Example 10] (H-[dGly(nOct)]T[Dab]C[Dab][dF][Hica(2S)][Dab][Dab]; linker 4-C via X1) ?
Completion: 2

Prompt: What does the record list as antibacterial activity (MIC) for CCCCCCCC[C@@H](N)C(=O)N[C@H](C(=O)N[C@@H](CCN)C(=O)N[C@H]1CSSC[C@H]([C@@H](C)O)NC(=O)[C@H](CCN)NC(=O)[C@H](CCN)NC(=O)[C@H](CC(C)C)NC(=O)[C@@H](Cc2ccccc2)NC(=O)[C@H](CCN)NC1=O)[C@@H](C)O [Example 5] (H-[dGly(nOct)]T[Dab]C[Dab][dF]L[Dab][Dab]; linker 4-C via X1; N-terminus assumed) ?
Completion: 1

* * *

Test system: E. coli ATCC 25922
Experiment: microbe, parasite or virus in culture
Format: cell-based
Conditions: ATCC 25922
Method: The antibacterial activity of the polymyxin lipopeptides was measured at ISGlobal following the microdilution test to determine the Minimal Inhibitory Concentrations (MIC) in sterile 96-well polypropilene plates. The concentration range was 32 a […] in Iso-Sensitest broth (Oxoid, ThermoFisher). The results were carried out in triplicate and the highest MIC is the one shown. Bacterial strains were grown in blood agar plates at 37° C. for 17 h. […]
Numbered stars: 1 amine (or outer) side, 2 acyl side, 3 side chain; on linkers, the order of the positions; unused ones are H or OH. Bridge positions count the residues as written; N and C are the ends. Square brackets hold non-standard residues; d marks the D form. Peptide text beside a SMILES is read from it. * marks the point of attachment. X1 = C[C@@H](O)[C@@H](CS[*:1])N[*:2]; dGly(nOct) = CCCCCCCC[C@@H](N)C(=O)O; Hica(2S) = CC(C)C[C@H](O)C(=O)O; Octanoyl = CCCCCCCC(=O)*; Dab = NCC[C@H](N)C(=O)O
assay.metric: antibacterial activity (MIC)
The answer consists of two parts: a number and, after it, its unit.

INSERT INTO measurements (compound, system, data_value) VALUES
  ('CCCCCCCC(=O)N[C@@H](CCN)C(=O)N[C@H](C(=O)N[C@@H](CCN)C(=O)N[C@H]1CSSC[C@H]([C@@H](C)O)NC(=O)[C@H](CCN)NC(=O)[C@H](CCN)NC(=O)[C@H](CC(C)C)OC(=O)[C@@H](CC(C)C)NC(=O)[C@H](CCN)NC1=O)[C@@H](C)O [Example 7] (Octanoyl-[Dab]T[Dab]C[Dab][dL][Hica(2S)][Dab][Dab]; linker 4-C via X1)', 'E. coli ATCC 25922', '8 µg/mL'),
  ('CCCCCCCC[C@@H](N)C(=O)N[C@H](C(=O)N[C@@H](CCN)C(=O)N[C@H]1CSSC[C@H]([C@@H](C)O)NC(=O)[C@H](CCN)NC(=O)[C@H](CCN)NC(=O)[C@H](CC(C)C)NC(=O)[C@@H](CC(C)C)NC(=O)[C@H](CCN)NC1=O)[C@@H](C)O [Example 6] (H-[dGly(nOct)]T[Dab]C[Dab][dL]L[Dab][Dab]; linker 4-C via X1; N-terminus assumed)', 'E. coli ATCC 25922', '2 µg/mL');

Here is the next item to consider.
Prompt: What does the record list as antibacterial activity (MIC) for CCCCCCCC(=O)N[C@@H](CCN)C(=O)N[C@H](C(=O)N[C@@H](CCN)C(=O)N[C@H]1CSSC[C@H]([C@@H](C)O)NC(=O)[C@H](CCN)NC(=O)[C@H](CCN)NC(=O)[C@H](CC(C)C)OC(=O)[C@@H](Cc2ccccc2)NC(=O)[C@H](CCN)NC1=O)[C@@H](C)O [Example 9] (Octanoyl-[Dab]T[Dab]C[Dab][dF][Hica(2S)][Dab][Dab]; linker 4-C via X1) ?
Completion: 4 µg/mL

Hello, the source for this data is patent US20210253520A1, in case you need it.
